- Tested on: LXFL 529
- PROCEDURE DETAILS: NCI tumour cell line growth inhibition, 48 h
Active and inactive are the calls of the source. Rule as the data show it: active = GI50 up to about 1.1 µM and inactive = higher.

{"MOLECULE": "COc1ccc(N2C(=O)/C(=C/c3ccc(N(CCC#N)CCC#N)cc3C)N=C2/C=C\\c2ccccc2)cc1", "GI50": "8.43 µM (inactive)"}
{"MOLECULE": "Cn1cc2ccccc2c1-c1nc(F)nc(Oc2ccc3c(c2)CC[C@@H]2C3CC[C@@]3(C)C2C[C@H](O)[C@@H]3O)n1 (stereo not given in full)", "GI50": "13.8 µM (inactive)"}
{"MOLECULE": "Cc1ccc(C2=Nc3ccccc3SC(c3cccc4c3OCO4)C2)cc1 (stereo not given)", "GI50": "15 µM (inactive)"}
{"MOLECULE": "O=C(Nc1ccc(C(F)(F)F)cc1[N+](=O)[O-])C(=O)C1NC(=S)NC1=O (stereo not given)", "GI50": "> 100 µM (inactive)"}
{"MOLECULE": "Cc1cc(C)nc(Sc2c([N+](=O)[O-])ncn2C)n1", "GI50": "99.8 µM (inactive)"}

* * *

- Test system: HL-60
- PROCEDURE DETAILS: NCI tumour cell line growth inhibition, 48 h
Calls of active or inactive are those of the source. No stated cut-off is given here; in the data, active = GI50 up to about 1.1 µM and inactive = higher.
Outcome codes: label 1 = active, label 0 = inactive

{"MOLECULE": "CCOC(=O)C1OC(=O)CC1C1(C(=O)OCC)C=CC(=O)O1 (stereo not given)", "CLASS NAME": "label 0"}
{"MOLECULE": "O=C(O)/C(=C/C=C/c1ccccc1)c1csc(-c2nc(/C(=C\\C=C\\c3ccccc3)C(=O)O)cs2)n1", "CLASS NAME": "label 0"}
{"MOLECULE": "CC(C)(C)CC(C)(C)c1ccc(OCCOCC[N+](C)(C)Cc2ccccc2)cc1 [BENZETHONIUM CHLORIDE]", "CLASS NAME": "label 1"}
{"MOLECULE": "CC1=N/C(=C\\c2cccc([N+](=O)[O-])c2)C(=O)O1", "CLASS NAME": "label 0"}
{"MOLECULE": "CC1(C)CNC(=O)C2(CCCO2)CNC(C)(C)CNC(=O)C2(CCCO2)CN1 (stereo not given)", "CLASS NAME": "label 0"}
{"MOLECULE": "O=S(=O)(O)c1cc(O)c(/N=N\\C2S(=O)(=O)OCCOS2(=O)=O)c2ccccc12", "CLASS NAME": "label 0"}
{"MOLECULE": "COc1ccc(C(=O)/C=C/c2ccc(OCCCOc3ccc(/C=C/C(=O)c4ccc(OC)cc4)cc3)cc2)cc1", "CLASS NAME": "label 0"}
{"MOLECULE": "O=C1c2ccc3c4ccccc4n(Cc4ccccc4)c3c2C(=O)N1c1ccccc1", "CLASS NAME": "label 0"}
{"MOLECULE": "O=S(O)CCCSSSCCCS(=O)O", "CLASS NAME": "label 0"}
{"MOLECULE": "C[N+]1(C)CN(c2ccccc2)C2(CCN(CCCC(=O)c3cccs3)CC2)C1=O", "CLASS NAME": "label 0"}

* * *

- Test system: SK-MEL-28
- PROCEDURE DETAILS: NCI tumour cell line growth inhibition, 48 h
Active and inactive are the calls of the source. Rule as the data show it: active = GI50 up to about 1.1 µM and inactive = higher.

{"COMPOUND": "COC(=O)N[C@H](C(=O)O)C(C)O[Si](C)(C)C(C)(C)C (stereo not given in full)", "GI50": "> 100 µM (inactive)"}
{"COMPOUND": "CC(C)C(NCc1c2ccccc2[n+]([O-])c2ccccc12)C(=O)O (stereo not given)", "GI50": "44.7 µM (inactive)"}
{"COMPOUND": "COC(=O)C(C(=O)C(=O)Nc1cccc([N+](=O)[O-])c1)c1nc2ccc([N+](=O)[O-])cc2nc1O (stereo not given)", "GI50": "> 100 µM (inactive)"}
{"COMPOUND": "CSc1ncc2c(C#N)c3sc4ccccc4n3c(=O)c2n1", "GI50": "> 100 µM (inactive)"}
{"COMPOUND": "Cc1ccc2nc(N/N=C/c3sccc3C)cc(C)c2c1", "GI50": "> 100 µM (inactive)"}
{"COMPOUND": "O=[N+]([O-])c1cc(I)cc(/C=N/NS(=O)(=O)c2ccc(F)cc2)c1O", "GI50": "29.4 µM (inactive)"}
{"COMPOUND": "COc1ccc(-c2cc(=O)c3c(OC)c(OC)c(OC)c(OC)c3o2)c(OC)c1", "GI50": "42.9 µM (inactive)"}
{"COMPOUND": "O=[N+]([O-])c1ccc(-c2csc(=[N+]3CCCCC3)s2)cc1", "GI50": "36.5 µM (inactive)"}
{"COMPOUND": "O=c1c(C(c2ccc(/C=C/c3ccccc3)cc2)c2c(O)oc3ccccc3c2=O)c(O)oc2ccccc12", "GI50": "33.3 µM (inactive)"}
{"COMPOUND": "Cc1cc(S(=O)(=O)NC2=NCc3nc4ccccc4n32)c(S)cc1Cl", "GI50": "30.5 µM (inactive)"}

* * *

- Test system: SN12C
- PROCEDURE DETAILS: NCI tumour cell line growth inhibition, 48 h
Active and inactive are the calls of the source. Cut-off read from the data, not from the text of the source: active = GI50 up to about 1.1 µM and inactive = higher.

{"COMPOUND": "CC[C@@]1(O)C(=O)OCc2c1cc1n(c2=O)Cc2c-1nc1ccc(O)cc1c2CC[Si](C)(C)C", "MEASURED ON": "SN12C", "GI50": "< 0.001 µM (active)"}
{"COMPOUND": "CN(C)CC1CCCC/C1=N/O (stereo not drawn)", "MEASURED ON": "SN12C", "GI50": "> 100 µM (inactive)"}
{"COMPOUND": "c1coc(-c2nccc3c2[nH]c2ccccc23)c1", "MEASURED ON": "SN12C", "GI50": "> 100 µM (inactive)"}
{"COMPOUND": "CNC(=O)c1cccc2c(Nc3ccc(NS(C)(=O)=O)cc3OC)c3cccc(C)c3nc12", "MEASURED ON": "SN12C", "GI50": "0.0326 µM (active)"}
{"COMPOUND": "C=C1C(=O)[C@@]23CC[C@@H]4[C@@]5(C)CCC[C@@]4(OC5=O)[C@@]2(C)CC[C@@H]1C3", "MEASURED ON": "SN12C", "GI50": "3.3 µM (inactive)"}
{"COMPOUND": "CP(C)C.[Ag][I]", "MEASURED ON": "SN12C", "GI50": "> 100 µM (inactive)"}
{"COMPOUND": "CC(C)N(C(=O)C12C3(C(=O)C(C)(C)C)C4C5(C#N)C3C1(C(=O)C(C)(C)C)C5C42C(=O)C(C)(C)C)C(C)C (stereo not drawn)", "MEASURED ON": "SN12C", "GI50": "> 100 µM (inactive)"}
{"COMPOUND": "NN/C(=N\\c1ccc(Cl)cc1)NS(=O)(=O)c1ccc(S(=O)(=O)c2ccccc2)s1", "MEASURED ON": "SN12C", "GI50": "22.6 µM (inactive)"}
{"COMPOUND": "O=C(OCCN=c1c2ccccc2ccc2ccccc12)c1ccc([N+](=O)[O-])cc1", "MEASURED ON": "SN12C", "GI50": "> 100 µM (inactive)"}
{"COMPOUND": "Nc1ccc2c(c1)C1=NNC(=O)CC1C2 (stereo not drawn)", "MEASURED ON": "SN12C", "GI50": "> 100 µM (inactive)"}
{"COMPOUND": "O=C1C2C3SC(c4cc5ccccc5cc43)C2C(=O)N1c1ccccc1 (stereo not drawn)", "MEASURED ON": "SN12C", "GI50": "> 100 µM (inactive)"}
{"COMPOUND": "COc1ccc(-c2cc(=O)c3c(OC)c(OC)c(OC)c(OC)c3o2)c(OC)c1", "MEASURED ON": "SN12C", "GI50": "20.6 µM (inactive)"}
{"COMPOUND": "CC(C)(C)OC(=O)NCCNCCNc1ccccc1", "MEASURED ON": "SN12C", "GI50": "> 100 µM (inactive)"}
{"COMPOUND": "c1ccc(-c2cc(-c3cc(-c4ccccc4)n(-c4ccccc4)n3)nn2-c2ccccc2)cc1", "MEASURED ON": "SN12C", "GI50": "> 100 µM (inactive)"}
{"COMPOUND": "O=C(O)c1cc(/N=C/c2ccccc2O)cc(C(=O)O)c1", "MEASURED ON": "SN12C", "GI50": "> 100 µM (inactive)"}
{"COMPOUND": "Cc1c2n(c3ccccc13)CC1C2N(C)OC1(C)C (stereo not drawn)", "MEASURED ON": "SN12C", "GI50": "> 100 µM (inactive)"}
{"COMPOUND": "N#CC(C(=O)C(=O)NCCCNC(=O)C(=O)C(C#N)c1ccccc1)c1ccccc1 (stereo not drawn)", "MEASURED ON": "SN12C", "GI50": "> 100 µM (inactive)"}
{"COMPOUND": "CC1=C(C)C(=O)C2=C(OCCO2)C1=O", "MEASURED ON": "SN12C", "GI50": "20 µM (inactive)"}
{"COMPOUND": "O=C(O)c1nccnc1C(=O)O", "MEASURED ON": "SN12C", "GI50": "> 100 µM (inactive)"}
{"COMPOUND": "O=c1cc(N2CCCC2)[nH]c(=O)n1-c1ccc(Cl)cc1", "MEASURED ON": "SN12C", "GI50": "> 100 µM (inactive)"}
{"COMPOUND": "CCC1C(=O)OCc2c1cc1n(c2=O)CCC12OCCO2 (stereo not drawn)", "MEASURED ON": "SN12C", "GI50": "> 100 µM (inactive)"}
{"COMPOUND": "COc1ccc(C2C3CCc4ccccc4C3=NN2S(=O)(=O)c2cccc(C(=O)O)c2OC)cc1 (stereo not drawn)", "MEASURED ON": "SN12C", "GI50": "27.3 µM (inactive)"}
{"COMPOUND": "O=C(Cn1c(C(=O)/C=C/c2ccc(Cl)c(Cl)c2)nc2ccccc21)c1ccccc1", "MEASURED ON": "SN12C", "GI50": "16 µM (inactive)"}
{"COMPOUND": "N/C(=N\\c1ccc(Cl)cc1)NS(=O)(=O)c1ccc(S(=O)(=O)c2ccccc2)s1", "MEASURED ON": "SN12C", "GI50": "17.5 µM (inactive)"}
{"COMPOUND": "O=C(O)C1(c2ccccc2)CCCNCC1 (stereo not drawn)", "MEASURED ON": "SN12C", "GI50": "> 100 µM (inactive)"}
{"COMPOUND": "CCCCCN(CCCCC)C(=O)[C@H](CCC(=O)OCc1ccccc1)NC(=O)c1cc2ccccc2[nH]1", "MEASURED ON": "SN12C", "GI50": "> 100 µM (inactive)"}
{"COMPOUND": "C[C@]12CCc3nonc3C1CC[C@@H]1C2CC[C@@]2(C)C1CC[C@@H]2O (stereo partly drawn)", "MEASURED ON": "SN12C", "GI50": "> 100 µM (inactive)"}
{"COMPOUND": "CCN(CC)CCN1c2ccccc2Sc2ccc3ccccc3c21", "MEASURED ON": "SN12C", "GI50": "11.7 µM (inactive)"}
{"COMPOUND": "Cc1ccc2nc(N/N=C/c3sccc3C)cc(C)c2c1", "MEASURED ON": "SN12C", "GI50": "> 100 µM (inactive)"}
{"COMPOUND": "COc1ccc(-c2c(-c3ccccc3)c(C)c3ccccn23)cc1", "MEASURED ON": "SN12C", "GI50": "> 100 µM (inactive)"}
{"COMPOUND": "O=C(NC(Cc1c[nH]c2ccccc12)C(=O)Nc1ccc(Br)cc1)OCc1ccccc1 (stereo not drawn)", "MEASURED ON": "SN12C", "GI50": "9.46 µM (inactive)"}
{"COMPOUND": "O=C(/C=C/c1ccccc1)CCN1CCCCC1", "MEASURED ON": "SN12C", "GI50": "20.3 µM (inactive)"}
{"COMPOUND": "COc1ccc(NC(=S)c2ccc([N+](=O)[O-])o2)cc1", "MEASURED ON": "SN12C", "GI50": "2.13 µM (inactive)"}
{"COMPOUND": "CC(C)C(NCc1c2ccccc2[n+]([O-])c2ccccc12)C(=O)O (stereo not drawn)", "MEASURED ON": "SN12C", "GI50": "44.8 µM (inactive)"}
{"COMPOUND": "CCOc1cc2cnc3c4cc(OC)c(OC)cc4ccc3c2cc1OC", "MEASURED ON": "SN12C", "GI50": "30 µM (inactive)"}
{"COMPOUND": "O=C(NCc1ccc2ccc3cccnc3c2n1)c1ccc[n+](Cc2ccccc2)c1", "MEASURED ON": "SN12C", "GI50": "> 100 µM (inactive)"}
{"COMPOUND": "CCOC(=O)NC(Nc1ccc(F)c(F)c1)(C(=O)OCC)C(F)(F)F (stereo not drawn)", "MEASURED ON": "SN12C", "GI50": "> 100 µM (inactive)"}
{"COMPOUND": "CCc1c(CNc2ccc(C(=O)NC(CC(=O)O)C(=O)O)cc2)ccc2nc(N)nc(N)c12 (stereo not drawn)", "MEASURED ON": "SN12C", "GI50": "< 0.0288 µM (active)"}
{"COMPOUND": "Cc1cc2nc3c(C(O)CO)nn(-c4ccccc4)c3nc2cc1C (stereo not drawn)", "MEASURED ON": "SN12C", "GI50": "13.8 µM (inactive)"}
{"COMPOUND": "NNc1ncnc2cccc(Cl)c12", "MEASURED ON": "SN12C", "GI50": "> 100 µM (inactive)"}
{"COMPOUND": "COc1ccc(/N=N/C(=N/NC(=O)c2ccccc2)c2ccc(N(CCC#N)CCC#N)cc2C)cc1", "MEASURED ON": "SN12C", "GI50": "56.1 µM (inactive)"}
{"COMPOUND": "Cc1cc2c(c(/C=N/c3ccccc3O)c1)OC1(C=C2)Oc2ccccc2C(=O)N1C (stereo not drawn)", "MEASURED ON": "SN12C", "GI50": "20.9 µM (inactive)"}
{"COMPOUND": "CC(=O)OCC1OC(n2c(C)c(/N=N/c3ccc(C)cc3)c(C)c(C#N)c2=S)C(OC(C)=O)C(OC(C)=O)C1OC(C)=O (stereo not drawn)", "MEASURED ON": "SN12C", "GI50": "> 100 µM (inactive)"}

Values were extracted from ChEMBL document CHEMBL1201862.
